Tested target: Yes (h) (Homo sapiens, UniProt P07947)
Sequence (P07947 whole entry): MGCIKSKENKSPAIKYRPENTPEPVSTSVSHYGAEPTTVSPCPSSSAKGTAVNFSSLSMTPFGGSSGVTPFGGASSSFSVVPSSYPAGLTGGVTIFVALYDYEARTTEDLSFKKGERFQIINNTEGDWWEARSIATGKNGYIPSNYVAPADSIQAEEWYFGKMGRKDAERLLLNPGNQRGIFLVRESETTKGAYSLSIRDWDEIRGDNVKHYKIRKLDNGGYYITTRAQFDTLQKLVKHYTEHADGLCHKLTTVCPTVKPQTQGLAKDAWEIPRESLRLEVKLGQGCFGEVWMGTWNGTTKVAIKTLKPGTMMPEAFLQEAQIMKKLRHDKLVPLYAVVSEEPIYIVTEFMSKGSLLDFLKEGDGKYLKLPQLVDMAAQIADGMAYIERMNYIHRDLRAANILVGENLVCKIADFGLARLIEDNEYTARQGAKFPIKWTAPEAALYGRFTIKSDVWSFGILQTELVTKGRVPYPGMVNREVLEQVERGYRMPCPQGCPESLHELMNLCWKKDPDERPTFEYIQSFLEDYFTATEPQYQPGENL
Protocol: biochemical
From the text: Specifically, in these assays, a positively charged substrate is phosphorylated with a radiolabeled phosphate group from an ATP if the kinase is not inhibited by an inhibitor peptide. The positively charged substrate then is attracted to a negatively charged filter membrane, quantified with a scintillation counter, and compared to a 100% activity control.
Where no end group is shown, it is not given here.
Property label: pIC50
Please note pIC50 is a logarithmic value: minus log10 of concentration in mol/L. Answer with that number alone.

Data request: Test system Yes (h) (Homo sapiens, UniProt P07947); read-out pIC50; what value for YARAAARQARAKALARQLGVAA [MMI-0100] ?
Data returned: 3.94

Every entry's value here was drawn from patent US20140072613A1.
